Test: physchem
Details: octan-1-ol/water, pH 7.4, LogD7.4
Here, each record is paired with measured logD data.
metric-name: logD

- molecule: "N#Cc1cccc(NCC(=O)Nc2c(Cl)ccc3nc(N4CC[C@@H](O)C4)ccc23)c1"
  observed-value: 2.39
- molecule: "Cc1cc(Nc2cnc(C#N)c(N[C@@H](C)c3ncc(F)cn3)n2)n[nH]1"
  observed-value: 1.96
- molecule: "O=C1C(=O)c2cc([N+](=O)[O-])ccc2-c2ccccc21"
  observed-value: 2.42
- molecule: "O=c1[nH]c2c(O)ccc([C@@H](O)CNCCCOCCNCCc3cccc(Cl)c3)c2s1"
  observed-value: -0.03
- molecule: "Nc1ncc(-c2cnn(C3CCN(C(=O)CO)CC3)c2)cc1-c1nc2ccccc2o1"
  observed-value: 3.2
- molecule: "O=S(=O)(Nc1ncc(Cl)s1)c1cc(F)c(Oc2ccc(F)cc2-c2cn[nH]c2)cc1F"
  observed-value: 2.7
- molecule: "Nc1ncc(-c2cnn(C3CCNCC3)c2)cc1-c1nc2ccccc2o1"
  observed-value: 1.85
- molecule: "CC[C@H](NC(=O)c1c([S+](C)[O-])c(-c2ccccc2)nc2cc(Cl)ccc12)c1ccccc1 (stereo not given in full)"
  observed-value: 3.07
- molecule: "CS(=O)(=O)c1ccc([C@@H](CC2CCCC2)C(=O)Nc2cnc([C@H](O)CO)cn2)cc1Cl"
  observed-value: 2.58
- molecule: "CC(C)(C)NS(=O)(=O)c1cncc(-c2ccc3nc(NC(=O)NCC(=O)N4CCCC4)nn3c2)c1"
  observed-value: 1.37
- molecule: "COc1cc(Nc2ncnc(Nc3c(Cl)ccc4c3OCO4)n2)cc(OC)c1OC"
  observed-value: 3.01
- molecule: "COCCOC(=O)C1=C(C)NC(C)=C(C(=O)OC(C)C)C1c1cccc([N+](=O)[O-])c1 (stereo not given)"
  observed-value: 3.8
- molecule: "CC(C)C(NC(=O)Cn1c(-c2ccccc2)ccc(NC(=O)OCc2ccc(C(=O)O)cc2)c1=O)C(=O)C(F)(F)F (stereo not given)"
  observed-value: 0.84
- molecule: "COC(=O)c1c(C)[nH]c(C)c1C(=O)c1ccccc1Cl"
  observed-value: 2.7
- molecule: "O=C(NCCCN1CCCCC1)C(c1ccccc1)c1ccccc1"
  observed-value: 1.33
- molecule: "Nc1nc2ccc(C(=O)c3ccccc3)cc2[nH]1"
  observed-value: 2.29
- molecule: "Cc1ccc(-c2nc3ccccc3[nH]2)cc1NC(=O)c1ccc(OCc2ccccn2)cc1"
  observed-value: 3.24
- molecule: "Nc1ncccc1NCc1cccc(-c2cccnc2)c1"
  observed-value: 3
- molecule: "Cc1ccc(Oc2ccc(Nc3ncnc4cccc(O[C@H](C)C(=O)N(C)CCO)c34)cc2C)cn1"
  observed-value: 3.85
- molecule: "Cc1ncccc1Oc1ncnc(OC2C3COCC2CN(C(=O)OC(C)C)C3)c1C (stereo not given)"
  observed-value: 3.1
- molecule: "O=C(CS(=O)(=O)c1ccccc1)c1ccccc1"
  observed-value: 1.86
- molecule: "O=C(NCCN1CCCC1)c1ccc(Nc2ncc3cc(-c4ccncc4)ccc3n2)cc1"
  observed-value: 2.39
- molecule: "COc1ccccc1CNCCc1cccc(CCNC[C@H](O)c2ccc(O)c3[nH]c(=O)sc23)c1"
  observed-value: 0.91
- molecule: "COc1cccc(CNCc2cccc(CCNC[C@H](O)c3ccc(O)c4[nH]c(=O)sc34)c2)c1"
  observed-value: 0.91
- molecule: "O=C(NCC12CC3CC(CC(C3)C1)C2)c1ccnc(NCC2CCNCC2)c1Cl"
  observed-value: 0.6
- molecule: "COc1ccc2ccc(=O)n(CCN3CCC(NCc4cc5c(cn4)OCCO5)CC3)c2n1"
  observed-value: 1.16
- molecule: "N#CN=C(N)c1sc(Nc2ccccc2)nc1N"
  observed-value: 2.91
- molecule: "COc1cc(N2CCN(C(C)=O)CC2)ccc1Nc1nccc(-c2cnc3ccccn23)n1"
  observed-value: 3
- molecule: "OCC[C@]1(c2cc3ccccc3o2)CCCNC1"
  observed-value: 0.12
- molecule: "Cn1c(-c2ccccc2)cc2onc(-c3ccncc3)c2c1=O"
  observed-value: 3.17
- molecule: "Cc1cc(CN2Cc3cccnc3CC2C(=O)Nc2ccc(Cl)cc2Cl)ccc1OCC(=O)O (stereo not given)"
  observed-value: 1.15
- molecule: "C[C@H]1C[C@@H]2[C@H]([C@@H](O)C[C@@]3(C)[C@H]2CC[C@]3(O)C(=O)CO)[C@@]2(C)C=CC(=O)C=C12"
  observed-value: 2.12
- molecule: "Cc1cc(Cl)ccc1N1CCN(C(=O)COCc2ccncc2)CC1"
  observed-value: 3.22
- molecule: "CCCC(=O)Nc1ccc2c(c1)C(=O)C(=O)c1ccccc1-2"
  observed-value: 2.81
- molecule: "c1ccc2nc(C3=NCCN3)ccc2c1"
  observed-value: 0.6
- molecule: "COc1cc2ncc(C(N)=O)c(Nc3ccc(F)cc3F)c2cc1NCCN1CCOCC1"
  observed-value: 2.68
- molecule: "NC(=O)c1cc(C(N)=O)n(-c2cccc(-c3cc(C(F)(F)F)ccc3C(F)(F)F)c2)n1"
  observed-value: 3.4
- molecule: "CN1CCN2c3ncccc3Cc3ccccc3C2C1 (stereo not given)"
  observed-value: 2.82
- molecule: "CCN1CCOC(C(=O)N2CCN(C(=O)Nc3ccc(Cl)c(Cl)c3)CC2)C1 (stereo not given)"
  observed-value: 2.1
- molecule: "CCCCNc1cc(C(=O)O)cc(S(N)(=O)=O)c1Oc1ccccc1 [BUMETANIDE]"
  observed-value: -0.3

Where do the numbers come from? From ChEMBL document CHEMBL3301361.
